Assay: Acute toxicity, oral, male mice
Design: species or system mice (CD1 Charles Rivers)
Conditions: mouse, in vivo, mortality during 7 days

{"chemical-smiles": "CON=C(C)C1=CCCN(C)C1", "LD50 at 168 h [mg/kg]": 350}
{"chemical-smiles": "CON=C(C)C1=CCCNC1", "LD50 at 168 h [mg/kg]": 125}
{"chemical-smiles": "CON=C(C)C1=CCCN(O)C1", "LD50 at 168 h [mg/kg]": 175}
{"chemical-smiles": "CC(=NO)C1=CCCNC1", "LD50 at 168 h [mg/kg]": 350}
